# Test system: Plasmodium berghei
# test_summary: Screen against P. berghei liver stage (PbLuc), transformed with Luciferase, at 10uM
# Format: functional, HepG2
# stated_conditions: tested at 10 uM
Hit rate of the full screen: of about 69,000 compounds, about 8,600 (12%) showed an effect of 50% or more. Shown is part of a subset that was picked to be rich in strong results.
property: INHIBITION (%)
Numeric answer only, unit % assumed.

In the examples that follow, each entry is paired with its recorded INHIBITION.
Entry under test: c1cnc(Nc2ccc(C3CCCCN3Cc3ccncc3)cn2)nc1 (stereo not given) . Its INHIBITION was 23.3

Reported INHIBITION of CC(C)C(C)N(Cc1cnc2ccccc2n1)Cc1ccco1 (stereo not given) : 47

Note to self: INHIBITION recorded for CC(C)N(C(=O)CN(C)C1CCc2ccccc21)C(C)C (stereo not given) was -30.96

// recorded INHIBITION for CC(C)c1ccc(C(C)N2CCCN(C(N)=O)CC2)cc1 (stereo not given) : -18.7

Measured INHIBITION, `Cn1cc(C(=O)NCc2cn3c(n2)CN(CC2CCCC2)CC3)cn1` : -2.17

Continuing:
The reported INHIBITION of the molecule `C[C@H](NS(C)(=O)=O)C(=O)NCc1cc(-c2ccco2)n[nH]1` was 2.6

Input `CN1C[C@H](c2ccccc2)[C@H]2CN(C(=O)Cc3cccc(O)c3)CC[C@H]21` . Output INHIBITION: 43.7

The value of INHIBITION measured for the molecule `C[C@@H]1CN(C(=O)C2(Cn3cccn3)CC2)CC[C@@]1(O)C1CC1` turned out to be 24.205

Field INHIBITION (entry Cc1cc(C)n(C2CCCN(C(=O)CCOc3ccccc3F)C2)n1 (stereo not given) ) reads -11.4

The molecule `CN(C(=O)c1cccc(Cl)c1)C1CCN(c2ccccn2)CC1` showed INHIBITION equal to 31.3

INHIBITION in this record for `Cc1cccc(OCCCNC(=O)Cn2ccc(C)cc2=O)c1` : -12.9
